The measured values listed here are drawn from PubChem BioAssay (NCI).

Test system: NCI-H23 lung
Method notes: NCI-60 one-dose screen, 48 h
Condition details: 10 µM unless noted
About 83,000 compounds went through this panel and 20% of them were active in at least one assay; those are over-represented in the sample as a whole. Calls of active or inactive are those of the source. How the source made its calls: active means growth percent below 10; inactive means the rest.
Possible outcomes: active, inactive

>>> assigned_category("O=C1Nc2ccccc2/C1=C/c1cccn1CCCCCn1c2ccccc2c(=O)c2ccccc21")
"inactive"
>>> assigned_category("CN1C(=O)/C(=C/c2ccc(C(=O)Nc3ncc(Cc4ccccc4Cl)s3)cc2)SC1=S")
"inactive"
>>> assigned_category("COCCn1cc(-c2csc(-c3cn(C)c4ccc(F)cc34)n2)c2cccnc21")
"inactive"
>>> assigned_category("O=C(/C=C/C12c3ccccc3C(c3ccccc31)C1C(=O)NC(=O)C12)c1ccncc1 (stereo not drawn)")
"inactive"
>>> assigned_category("C=C(CN1CC=CCC1)[C@@H]1CC[C@]2(COC(C)=O)CC[C@]3(C)[C@H](CC[C@@H]4[C@@]5(C)CC[C@H](O)C(C)(C)[C@@H]5CC[C@]43C)[C@@H]12")
"inactive"
>>> assigned_category("CCN(CC)/C([O-])=c1\\cccc\\c1=C1\\N=C(c2ccccc2)N=C1[n+]1ccc(-c2ccccc2)cc1")
"inactive"
>>> assigned_category("S=c1nc(CS)[nH]c2ccccc12")
"inactive"
>>> assigned_category("CCN(c1cc(-c2ccc(CN3CCC(/C=C/S(=O)(=O)c4ccccc4)CC3)cc2)cc(C(=O)NCc2c(C)cc(C)[nH]c2=O)c1C)C1CCOCC1")
"inactive"
>>> assigned_category("O=C1CCCCN1CCCCC#Cc1cccc(C#Cc2cccnc2)c1")
"inactive"
>>> assigned_category("CN(C)C(=O)c1cc2cnc(Nc3ccc(-c4csc5c(=S)cc(N6CCOCC6)oc45)cc3)nc2n1C1CCCC1")
"active"
>>> assigned_category("CCOc1ccccc1NC(=O)c1cc2ccccc2cc1O")
"inactive"
>>> assigned_category("Cc1ccc(/C=C(\\C#N)c2cc3ccccc3[nH]2)cc1")
"inactive"
>>> assigned_category("COc1ccc(/C=N\\Nc2nc(SCC(C)C)nc(-c3ccc(OC)cc3)c2C#N)cc1")
"inactive"
>>> assigned_category("N=c1ccccn1CCO")
"inactive"
>>> assigned_category("CCC(=O)Oc1cc(Cl)c(Cl)cc1Cl")
"inactive"
>>> assigned_category("CCCN1C(=O)/C(=c2\\sc3n(c2=O)NC2C(N=3)N(CC)C(=O)N2CC)c2ccccc21 (stereo not drawn)")
"inactive"
>>> assigned_category("C=C(C)[C@@H]1CC[C@]2(C(=O)N3CCN(C)CC3)CC[C@]3(C)[C@H](CC[C@@H]4[C@@]5(C)CC(CCCNC(C)=O)(CCCNC(C)=O)[C@H](OC(C)=O)C(C)(C)[C@@H]5CC[C@]43C)[C@@H]12")
"inactive"
>>> assigned_category("COc1cc(-c2[nH]ncc2Nc2ccc(Cl)cc2)cc(OC)c1OC")
"inactive"
